ASSAY_TARGET: PI3Kα (Homo sapiens (Human), UniProt P42336)
Sequence (P42336 whole entry, one chain of several): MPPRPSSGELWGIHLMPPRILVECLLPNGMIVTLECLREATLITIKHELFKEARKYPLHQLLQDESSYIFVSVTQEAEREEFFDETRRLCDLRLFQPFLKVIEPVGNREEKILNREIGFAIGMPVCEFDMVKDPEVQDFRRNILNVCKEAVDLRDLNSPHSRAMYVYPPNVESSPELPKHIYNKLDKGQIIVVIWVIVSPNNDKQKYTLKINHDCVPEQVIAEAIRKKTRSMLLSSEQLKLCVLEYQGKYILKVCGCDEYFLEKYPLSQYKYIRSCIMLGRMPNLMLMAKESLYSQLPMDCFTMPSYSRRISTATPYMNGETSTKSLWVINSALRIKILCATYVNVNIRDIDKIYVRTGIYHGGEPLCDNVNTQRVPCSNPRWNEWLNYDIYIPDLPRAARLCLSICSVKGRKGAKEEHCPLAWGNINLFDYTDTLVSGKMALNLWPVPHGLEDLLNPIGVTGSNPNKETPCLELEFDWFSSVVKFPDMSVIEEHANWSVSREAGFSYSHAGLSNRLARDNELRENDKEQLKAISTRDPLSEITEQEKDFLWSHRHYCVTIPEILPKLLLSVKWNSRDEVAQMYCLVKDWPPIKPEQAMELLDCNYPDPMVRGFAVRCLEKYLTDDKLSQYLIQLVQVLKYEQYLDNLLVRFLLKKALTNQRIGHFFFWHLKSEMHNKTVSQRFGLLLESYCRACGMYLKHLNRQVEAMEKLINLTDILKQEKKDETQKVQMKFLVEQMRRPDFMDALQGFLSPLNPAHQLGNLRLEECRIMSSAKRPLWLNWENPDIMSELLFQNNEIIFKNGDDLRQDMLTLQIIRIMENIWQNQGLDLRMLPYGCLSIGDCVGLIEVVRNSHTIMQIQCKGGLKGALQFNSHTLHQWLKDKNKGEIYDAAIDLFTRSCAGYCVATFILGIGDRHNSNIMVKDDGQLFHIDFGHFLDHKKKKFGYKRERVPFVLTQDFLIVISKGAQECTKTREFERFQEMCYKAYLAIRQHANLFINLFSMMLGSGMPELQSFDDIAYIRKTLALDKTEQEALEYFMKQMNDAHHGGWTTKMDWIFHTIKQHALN
ASSAY_PROCEDURE: Inhibition of PI3Kα efficacy assay (ADP-Glo kinase assay)
Format: biochemical
CONDITIONS: Table 1; read-out: PI3Kα inhibitory activity (IC50)
pIC50: −log10 of the molar value.
List of pIC50 values.
PROPERTY_LABEL: pIC50

> print(dat)
                         structure.notation                              assay.target  property.label  numeric.value
1  COc1ncc(-c2ccc3ncnc(N4C[C@@H](C)N(C(=O)/C=C/C(C)=O)C[C@@H]4C)c3c2)cc1NS(=O)(=O)c1ccc(F)cc1F  PI3Kα (Homo sapiens (Human), UniProt P42336)           pIC50           7.99
2  C=CC(=O)N1CCN(c2nc(C)nc3ccc(-c4cnc(OC)c(NS(=O)(=O)c5ccc(F)cc5F)c4)cc23)CC1  PI3Kα (Homo sapiens (Human), UniProt P42336)           pIC50           7.38
3  COc1ncc(-c2ccc3ncnc(N4CCN(C(=O)/C=C/C(C)=O)CC4)c3c2)cc1NS(=O)(=O)C1CCCCC1  PI3Kα (Homo sapiens (Human), UniProt P42336)           pIC50           7.35
4  COc1ncc(-c2ccc3ncnc(N4CCN(C(=O)/C=C/CN(C)C)CC4)c3c2)cc1NS(=O)(=O)c1ccc(F)cc1F  PI3Kα (Homo sapiens (Human), UniProt P42336)           pIC50           9.19
5  C=CC(=O)N1C[C@H](C)N(c2ncnc3ccc(-c4cnc(OC)c(NS(=O)(=O)c5ccc(F)cc5F)c4)cc23)C[C@H]1C  PI3Kα (Homo sapiens (Human), UniProt P42336)           pIC50           8.02
6  C=CC(=O)N1CC2(CCN(c3ncnc4ccc(-c5cnc(OC)c(NS(=O)(=O)c6ccc(F)cc6F)c5)cc34)CC2)C1  PI3Kα (Homo sapiens (Human), UniProt P42336)           pIC50           8.92

###

Recorded pIC50 by entry
ASSAY_TARGET: PI3Kδ (Homo sapiens (Human))
Sequence (O00329 whole entry): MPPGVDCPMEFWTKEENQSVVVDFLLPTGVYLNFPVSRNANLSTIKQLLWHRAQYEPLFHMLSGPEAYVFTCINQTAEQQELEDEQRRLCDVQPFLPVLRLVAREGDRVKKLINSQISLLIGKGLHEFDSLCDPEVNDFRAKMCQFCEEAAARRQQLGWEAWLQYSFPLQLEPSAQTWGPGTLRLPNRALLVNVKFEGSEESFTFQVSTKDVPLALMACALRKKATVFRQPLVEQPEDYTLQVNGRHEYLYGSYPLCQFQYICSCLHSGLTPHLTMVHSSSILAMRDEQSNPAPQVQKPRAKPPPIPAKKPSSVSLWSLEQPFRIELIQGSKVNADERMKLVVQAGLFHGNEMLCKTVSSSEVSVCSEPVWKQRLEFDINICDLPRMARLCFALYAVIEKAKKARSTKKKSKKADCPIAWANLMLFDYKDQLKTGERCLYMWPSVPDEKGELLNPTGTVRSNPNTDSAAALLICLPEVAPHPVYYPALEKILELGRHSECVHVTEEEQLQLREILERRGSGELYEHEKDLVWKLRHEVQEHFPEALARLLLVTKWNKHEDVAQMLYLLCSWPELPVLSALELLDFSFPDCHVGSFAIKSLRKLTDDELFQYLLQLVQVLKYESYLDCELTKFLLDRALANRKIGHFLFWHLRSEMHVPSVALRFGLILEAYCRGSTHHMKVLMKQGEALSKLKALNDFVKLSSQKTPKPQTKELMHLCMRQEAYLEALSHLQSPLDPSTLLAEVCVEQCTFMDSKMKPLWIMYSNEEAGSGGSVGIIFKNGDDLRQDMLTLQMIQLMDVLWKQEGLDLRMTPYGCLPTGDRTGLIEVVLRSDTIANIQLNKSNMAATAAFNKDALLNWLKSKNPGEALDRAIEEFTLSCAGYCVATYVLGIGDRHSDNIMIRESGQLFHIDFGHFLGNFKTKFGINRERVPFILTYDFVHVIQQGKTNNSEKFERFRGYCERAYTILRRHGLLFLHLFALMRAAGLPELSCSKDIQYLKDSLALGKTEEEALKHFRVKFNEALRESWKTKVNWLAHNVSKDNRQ
Sequence (P27986 whole entry partner): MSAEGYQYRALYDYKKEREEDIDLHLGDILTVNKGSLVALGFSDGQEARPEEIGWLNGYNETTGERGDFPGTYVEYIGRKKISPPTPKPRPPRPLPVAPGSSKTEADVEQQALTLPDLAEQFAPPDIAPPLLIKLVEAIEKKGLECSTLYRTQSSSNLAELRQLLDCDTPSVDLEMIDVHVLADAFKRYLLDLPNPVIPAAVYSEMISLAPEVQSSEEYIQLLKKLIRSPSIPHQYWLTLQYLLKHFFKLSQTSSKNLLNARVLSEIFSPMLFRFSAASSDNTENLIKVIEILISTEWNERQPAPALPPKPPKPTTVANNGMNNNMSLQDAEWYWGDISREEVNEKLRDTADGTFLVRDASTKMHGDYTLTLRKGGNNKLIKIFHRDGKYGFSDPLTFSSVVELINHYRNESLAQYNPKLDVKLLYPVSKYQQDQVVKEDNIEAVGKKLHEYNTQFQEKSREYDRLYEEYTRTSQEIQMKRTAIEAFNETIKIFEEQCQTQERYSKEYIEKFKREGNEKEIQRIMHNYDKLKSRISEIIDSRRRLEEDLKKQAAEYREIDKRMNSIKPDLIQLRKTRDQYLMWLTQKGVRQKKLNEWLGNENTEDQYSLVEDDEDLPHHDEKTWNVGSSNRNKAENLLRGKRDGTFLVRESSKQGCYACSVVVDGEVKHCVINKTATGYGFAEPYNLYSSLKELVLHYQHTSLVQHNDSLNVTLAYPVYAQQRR
ASSAY_PROCEDURE: Inhibition of PI3Kδ efficacy assay (ADP-Glo kinase assay)
Type: biochemical
CONDITIONS: Table 1; read-out: PI3Kδ inhibitory activity (IC50)
pIC50: −log10 of the molar value.
PROPERTY_LABEL: pIC50

> print(dat)
                                   molecule  property.label  numeric.value
1  C=CC(=O)N1C[C@H](C)N(c2ncnc3ccc(-c4cnc(OC)c(NS(=O)(=O)c5ccc(F)cc5F)c4)cc23)C[C@H]1C [Example 14]           pIC50           7.21
2  COc1ncc(-c2ccc3ncnc(N4CCN(C(=O)/C=C/C(C)=O)CC4)c3c2)cc1NS(=O)(=O)c1c(F)cccc1F [Example 22]           pIC50           7.08
3  COc1ncc(-c2ccc3ncnc(N4CCN(C(=O)/C=C/CF)CC4)c3c2)cc1NS(=O)(=O)c1ccc(F)cc1F [Example 16]           pIC50           7.55
4  COc1ncc(-c2ccc3ncnc(N4C[C@@H](C)N(C(=O)/C=C/C(C)=O)C[C@@H]4C)c3c2)cc1NS(=O)(=O)c1ccc(F)cc1F [Example 15]           pIC50           6.88
5  C=CC(=O)N1CCN(c2ncnc3ccc(-c4cnc(OC)c(NS(=O)(=O)c5ccc(F)cc5F)c4)cc23)[C@@H](C)C1 [Example 7]           pIC50           7.92
6  CC(=O)/C=C/C(=O)N1CCN(c2ncnc3ccc(-c4cnc(Cl)c(NS(=O)(=O)c5ccc(Cl)s5)c4)cc23)CC1 [Example 36]           pIC50           6.86
